EXPERIMENTAL TARGET: T1, mouse CAPRIN-1 on mouse cancer cells (mouse, UniProt Q60865 2-707)
T1 construct: whole, on cells
T1 sequence (looked up): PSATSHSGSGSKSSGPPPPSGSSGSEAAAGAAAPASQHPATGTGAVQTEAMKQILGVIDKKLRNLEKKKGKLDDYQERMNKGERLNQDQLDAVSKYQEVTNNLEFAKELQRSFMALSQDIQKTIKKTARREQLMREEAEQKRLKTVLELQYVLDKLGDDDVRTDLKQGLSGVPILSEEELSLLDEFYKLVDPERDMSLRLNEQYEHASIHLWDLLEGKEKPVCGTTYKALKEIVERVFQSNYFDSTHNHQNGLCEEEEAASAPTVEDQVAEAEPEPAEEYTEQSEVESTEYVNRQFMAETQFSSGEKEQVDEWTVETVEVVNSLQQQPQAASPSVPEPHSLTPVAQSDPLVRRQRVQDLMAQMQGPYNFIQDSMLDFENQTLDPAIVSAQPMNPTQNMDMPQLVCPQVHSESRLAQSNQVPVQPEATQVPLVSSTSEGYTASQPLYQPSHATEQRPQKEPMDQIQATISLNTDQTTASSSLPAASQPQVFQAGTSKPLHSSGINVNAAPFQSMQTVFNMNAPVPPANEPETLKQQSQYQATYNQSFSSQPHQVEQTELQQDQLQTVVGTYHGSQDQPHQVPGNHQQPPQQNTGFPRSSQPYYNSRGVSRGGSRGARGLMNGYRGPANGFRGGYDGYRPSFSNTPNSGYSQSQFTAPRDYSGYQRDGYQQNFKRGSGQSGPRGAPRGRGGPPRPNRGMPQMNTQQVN
MEASUREMENT DESCRIPTION: flow cytometry, Renca and 4T1 cells
PROPERTY LABEL: binding result

A selection of reference data follows.
BINDER	OBSERVED RESULT
Conjugate 88 (antibody, V domains shown, human IgG1 constant regions; also called conjugate with MMAE using humanized antibody #2) VH: EQSLVESGGGLVQPGGSLRLSCAASGFSLSSHSLGWVRQAPGKGLEWIGDIRSGGSAYYANWAKGRFTISRDNSKNTLYLQMNSLRAEDTAVYYCTRTNGPSDLTNRLDLWGQGTLVTVSS VL: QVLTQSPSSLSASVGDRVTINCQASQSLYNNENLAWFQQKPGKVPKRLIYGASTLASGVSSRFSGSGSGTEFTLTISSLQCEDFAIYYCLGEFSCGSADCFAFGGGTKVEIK	binds
Conjugate 15 (antibody, human IgG1, V domains shown, human IgG1 constant regions; also called conjugate with MMAE using humanized antibody #9) VH: AVTLDESGGGLQTPGGALSLVCKASGFTFSGYDMLWVRQAPGKGLEWVAGIGSTGGGTDYGAAVKGRATISRDNGQSTVRLQLNNLRAEDTATYYCAKVAGGCNSGYCRDSPGSIDAWGHGTEVIVS VL: AVTQQPASVSANPGETVKITCSGGGSRNYYGWYQQKSPGSVPVTVIYYDDQRPSNIPSRFSGALSGSTSTLTITGVQADDEAVYFCGSADSNTYEGSFGAGTTLTVL	binds
Conjugate 42 (antibody, human IgG1, V domains shown, human IgG1 constant regions; also called conjugate with MMAE using humanized antibody #36) VH: EVQLVESGGGLVQPGGSLRLSCAASGFSLSSHSLGWVRQAPGKGLEWIGDIRSGGSAYYANWAKGRFTISRDNSKNTLYLQMNSLRAEDTAVYYCTRTNGPSDLTNRLDLWGQGTLVTVSS VL: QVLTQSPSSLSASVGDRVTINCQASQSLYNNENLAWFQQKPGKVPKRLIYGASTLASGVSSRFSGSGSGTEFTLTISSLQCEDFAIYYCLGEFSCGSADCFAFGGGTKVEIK	binds
Conjugate 125 (antibody, V domains shown, human IgG1 constant regions; also called conjugate with MMAE using humanized antibody #39) VH: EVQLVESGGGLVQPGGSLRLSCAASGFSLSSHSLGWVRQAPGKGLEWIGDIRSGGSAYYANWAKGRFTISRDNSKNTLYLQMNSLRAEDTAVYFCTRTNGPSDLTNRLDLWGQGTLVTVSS VL: EIVLTQSPSSLSASVGDRVTINCQASQSLYNNENLAWFQQKPGKVPKRLIYGASTLASGVSSRFSGSGSGTEFTLTISNLQPEDFATYYCLGEFSCGSADCFAFGGGTKVEIK	binds
Conjugate 46 (antibody, human IgG1, V domains shown, human IgG1 constant regions; also called conjugate with MMAE using humanized antibody #40) VH: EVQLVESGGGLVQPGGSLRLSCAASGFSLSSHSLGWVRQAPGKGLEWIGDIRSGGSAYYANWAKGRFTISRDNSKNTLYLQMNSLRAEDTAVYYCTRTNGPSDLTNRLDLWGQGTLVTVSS VL: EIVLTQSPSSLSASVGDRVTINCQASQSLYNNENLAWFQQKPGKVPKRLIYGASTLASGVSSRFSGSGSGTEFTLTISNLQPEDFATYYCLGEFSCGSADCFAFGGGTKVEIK	binds
Conjugate 95 (antibody, V domains shown, human IgG1 constant regions; also called conjugate with MMAE using humanized antibody #9) VH: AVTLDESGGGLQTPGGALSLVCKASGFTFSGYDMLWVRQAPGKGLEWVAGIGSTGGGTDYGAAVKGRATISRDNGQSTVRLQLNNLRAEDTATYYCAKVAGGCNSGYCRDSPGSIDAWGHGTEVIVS VL: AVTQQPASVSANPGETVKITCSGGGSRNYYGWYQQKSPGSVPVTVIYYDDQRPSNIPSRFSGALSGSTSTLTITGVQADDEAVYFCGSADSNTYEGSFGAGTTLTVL	binds
Conjugate 45 (antibody, human IgG1, V domains shown, human IgG1 constant regions; also called conjugate with MMAE using humanized antibody #39) VH: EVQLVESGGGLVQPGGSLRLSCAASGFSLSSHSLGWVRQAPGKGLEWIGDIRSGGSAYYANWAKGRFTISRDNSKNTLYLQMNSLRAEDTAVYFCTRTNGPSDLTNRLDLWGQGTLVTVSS VL: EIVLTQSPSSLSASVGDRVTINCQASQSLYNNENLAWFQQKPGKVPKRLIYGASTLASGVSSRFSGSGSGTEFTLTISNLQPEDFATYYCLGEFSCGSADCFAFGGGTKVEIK	binds
Conjugate 43 (antibody, human IgG1, V domains shown, human IgG1 constant regions; also called conjugate with MMAE using humanized antibody #37) VH: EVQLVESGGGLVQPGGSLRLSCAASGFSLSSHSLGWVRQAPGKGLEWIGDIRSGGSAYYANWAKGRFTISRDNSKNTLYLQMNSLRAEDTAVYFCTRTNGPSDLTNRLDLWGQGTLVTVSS VL: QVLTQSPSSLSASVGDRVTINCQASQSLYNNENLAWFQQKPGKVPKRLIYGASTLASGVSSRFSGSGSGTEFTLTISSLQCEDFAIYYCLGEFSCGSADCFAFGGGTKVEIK	binds
Conjugate 20 (antibody, human IgG1, V domains shown, human IgG1 constant regions; also called conjugate with MMAE using humanized antibody #14) VH: DAELVKPGASVKISCKASGYTFTDHSIHWVQQKPEQGLEWIGYISPGNGNIKYNEKFKGKATLTADKSSSTAYMQLNSLTSEDSAVYFCKRSLGRGGPYYFDYWGQGTTVTVSS VL: DIVLTQAAPSLPVTPGESVSISCRSSKSLLHSNGNTYLYWFLQRPGQSPQLLIYRMSNLASGVPDRFSGSGSGTAFTLRISRVEAEDVGVYYCMQHREYPVTFGSGPN	binds

q: Consider the binder Conjugate 123 (antibody, V domains shown, human IgG1 constant regions; also called conjugate with MMAE using humanized antibody #37) VH: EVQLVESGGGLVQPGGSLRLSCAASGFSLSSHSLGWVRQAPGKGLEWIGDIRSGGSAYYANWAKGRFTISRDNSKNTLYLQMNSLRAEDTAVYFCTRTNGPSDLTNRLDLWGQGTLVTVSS VL: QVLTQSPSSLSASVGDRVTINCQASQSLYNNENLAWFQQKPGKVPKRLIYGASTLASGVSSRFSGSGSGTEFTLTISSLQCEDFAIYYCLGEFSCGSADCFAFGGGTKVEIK and give its recorded binding result.
a: binds
